Tested on: MALME-3M melanoma
test: NCI-60 one-dose screen, 48 h (100 = growth as untreated, 0 = no growth, -100 = all killed)
test_context: 10 µM unless noted
This is part of a sample that, as a whole, favours compounds with a hit. Of some 83,000 tested, about 20% had one in any assay. Active and inactive are the calls of the source. How the source made its calls: active means growth percent below 10; inactive means the rest.
reported_endpoint: growth

The cases that follow already have their growth on record.
>  <compound>
CC(=O)C1=NN(c2ccc(Cl)cc2)C(=O)CN1C

>  <test_target>
MALME-3M melanoma

>  <reported_endpoint>
growth

>  <measurement>
107% (inactive)

$$$$
>  <compound>
CC(=O)Oc1ccc(CCN2C(=O)CSC2=S)cc1

>  <test_target>
MALME-3M melanoma

>  <reported_endpoint>
growth

>  <measurement>
83.2% (inactive)

$$$$
>  <compound>
CN(c1ccc(F)cc1)S(=O)(=O)c1ccc(-c2cnc(C3CC3)o2)cc1

>  <test_target>
MALME-3M melanoma

>  <reported_endpoint>
growth

>  <measurement>
65.3% (inactive)

$$$$

Query string: State its growth for this compound: N/C(=N\OC(=O)CSc1nc2ccccc2s1)c1ccc2ccccc2c1
Result string: 105% (inactive)

Query string: State its growth for this compound: C#Cc1ccc(NC(=O)c2ccc(/C=C/C(=O)c3nccn3C)cc2)c(F)c1
Result string: 89.8% (inactive)

Query string: State its growth for this compound: COCCOc1ccc(-c2csc(NC(C)=O)n2)cc1NS(=O)(=O)c1cccc2c(N(C)C)cccc12
Result string: 83.9% (inactive)

Query string: State its growth for this compound: Nc1nc(N)c2c(n1)NC(c1ccccc1)CC(c1ccc(Nc3nc(NCCO)nc(Nc4ccc(Cl)cc4)n3)cc1)=N2 (centres undefined)
Result string: -89.6% (active)

Query string: State its growth for this compound: CC1OC(O[C@@H]2[C@H](O)C(CO)OC(O[C@H]3COC(O[C@H]4CC[C@]5(C)[C@H]6CC[C@]78OC[C@@]9(CC[C@](C)(C=O)C[C@H]97)C(=O)C[C@@]8(C)[C@]6(C)CC[C@H]5C4(C)C)[C@@H](O)[C@@H]3O)[C@H]2OC2OC[C@@H](O)[C@@H](O)[C@@H]2O)[C@@H](O)[C@@H](O)[C@H]1O (some centres undefined)
Result string: 98.2% (inactive)

Query string: State its growth for this compound: CCN1C(=O)N(CC)C2SC(N/N=C/c3ccc(F)cc3)=NC21 (centres undefined)
Result string: 54.7% (inactive)

====

Tested on: SK-MEL-2 melanoma
test: NCI-60 one-dose screen, 48 h
test_context: 10 µM unless noted
This is part of a sample that, as a whole, favours compounds with a hit. Of some 83,000 tested, about 20% had one in any assay. Activity calls are given as the source filed them. How the source made its calls: active means growth percent below 10; inactive means the rest.
Form entry, call: pick from active, inactive

Worked set:
>  <molecule>
CCCC(=O)NC(c1cccnc1)c1cc(Cl)c2cccnc2c1O (stereo not given)

>  <class>
inactive

$$$$
>  <molecule>
O=C(NCCCNc1cc(-c2cn(-c3ccccc3)nc2-c2cccc(O)c2)ccn1)Nc1cc(C(F)(F)F)cc(C(F)(F)F)c1

>  <class>
inactive

$$$$
>  <molecule>
CC(=O)Nc1ccc(NC(=O)Nc2cccc(-c3nc(-c4ccc(NC(=O)c5cccs5)cc4Cl)no3)c2)cc1C(F)(F)F

>  <class>
active

$$$$

Query string: Give the logged outcome of this assay for the following molecule: COc1c([C@@H](CC(C)C)OC(C)=O)ccc2c1C(=O)OCc1cc(C)cc(O)c1O2
Result string: inactive

Query string: Give the logged outcome of this assay for the following molecule: N#C/C(=C\c1ccc2ccccc2c1)C(=O)Nc1sc2c(c1C#N)CCC2
Result string: inactive
